# Test Protocol: yeast display, Sf9 membrane polyspecificity reagent, FACS + sequencing; frameworks hold sequencing errors
Measurement Kind: polyreactivity (PSR sort gate)

QVQLVESGGGLVQAGGRLRLSCADSGRTFPLYVMGWYRQAPGKERELVAAISARGGSTYYADSVKGRFTISRDNAKNTVYLQMNSLKPEDTAVYYCATLVTNGRYDSWGQGTQVTVSS :: high polyreactivity
QVQLVESGGGLVQAGGSLRVSCAASGRIFKSNAMGWYRPAPGKERELVASSTASGGRTYYADSVKGRFTISRDNAKNTVYLQMNSLKPEDTAVYYCAAGRPFSKYGYWGQGTQVTVTS :: high polyreactivity
QVQLVESGGGLVQAGGSLRLSCAASGSTSDYYAMGWYRQAPGKERELVAAISWSGGSTYYADSVKGRFTISRDNAKNTVYLQMISLKPEDNAVYYCAAQHYNFSGPFEYWGQGTQVTVSS :: low polyreactivity
QVQLVESGGGLVQAGGSLRLSCAASGSIFGAYAMGWYRQAPGKERELVAAISGSGTSTYYADSVKGRFTISRDNAKNTVYLQMNSLKPEDTAVYYCATAKLTWRSQGLDYWGQGTQVTVSS :: low polyreactivity
QVQLVESGGGLDQARGSLRLSCAASGSTFGRYAIGWYRQAHGKERELVAAINSRGGRTYYADSVKGRFTISRDNAKNTVYLQMNSLKPEVTAVYYCAAPTGPKGYYSDRGDSWGQGTQVTLSS :: low polyreactivity
QVQLVESGGGLVQAGGSLRLSCAASVSIFGYNTMGRYRQAPGKERELVARIRASGGSTYYADSVKGRFTISRDNAKNTVYLQMNSLKPEDTAVYYCAKYLRGSWVRQFGSTYDYWGQGTQVTVSS :: high polyreactivity
QLQLVESGGGLVQAGGSLRLSCAASGSIFRGYAMGWYRQAPGKERELVAAISWSGGRTYYADSVKGRFTISRDYAKNTVYLQMNSLKPEDTSVFYCNAASLRYSYTLFDCWGQGTQVTVSS :: high polyreactivity
QVQLVESGGGLVQAGGSLRLSCAASGSTIRYYVKGWYRQAPGKERELVAAISYNGGSTYYADSVKGRFTISRDTAKNTVYLHMNSVTPEDTAVYYCAADAPYRSSGKDYWGQGTQVTVSS :: high polyreactivity
QVQLVESGGGLVQAGGSLRLSCAASGLIFTYYTMGWYRQEPGTERELVATINWNTSSTYYADSVKGRFTISRDNAKNTVYLQMNSLKPEDTAVYYCNKRIAESDTTVTYDYWGQGTQVTVSS :: low polyreactivity
QVQLVESGGGILQAGGSLRLSCAASGSIFGGNAMGWYRQAPGKERELVAAITSTVSTNYADSVKGRFTISRDNAKNTVYLQMNSLKPEDTAVYYCANDTSNVEGDYWGQGTQVTVSS :: low polyreactivity
QVQHVESGGGLVQAGGSLRLSCAASGSIFAGYANGWYRKAPGKERELVARITDRGGSTDYADSVKGRYTISRDNAKNTVYLQMNSLKPEDTAVYSCAKRGDRYEKRPRDYWGQGTQVTVSS :: low polyreactivity

###

# Test Protocol: yeast display, Sf9 membrane polyspecificity reagent, FACS + sequencing; frameworks hold sequencing errors
Measurement Kind: polyreactivity (PSR sort gate)

HAQLQESGGGLVQAGGSLRRSFAASGSIFRFSGMGWYRRAPGKERELVASIGFGSITYYADRVKGRFTISRDNANNTVYLQMNSLKPEDTAVYYCAVQVQDESWLDYWGQGTQVTVSC :: low polyreactivity
QVQLVESCGGLVQAGGSLRLSCAASGIIFRYYAMGWYRQAPGKEREFVASINFSGSSTYYADSVKGRFTISRDNAKNSVYLQMKSLKPEDTAVYYCAAGRRWLYDYWGQGTQVTVSS :: high polyreactivity
QVQLVESGGGLVQAGGSLRLSCAASGSIIDINALGWYRQAPRKERDLVAAISLSAGSTYYADSVKGRFSISRDNAKNTVYLQMNSLKPEDTAVYYGAAERGGRGTLRNRYDYWGQGTQVTVSS :: low polyreactivity
QVQLVESGGGLVQAGGSLRLSCAASGFTFYSYAMGWYRQAPGKERELVAAISWSGSRTYYADSVKGRFTISRDNAKNTVYLQMNSLKPEDTAVYYCTKYLPRHRYDFDYWGQGTQVTVSS :: high polyreactivity
QVQLVESGGGLVQAGGSLRLSCAASGNIFYINAMGWYRQAPGKERELVAAISSGGRTNYADSVKGRFTISRDNAKNTVYLQMNSLKPEDTAVYYCNADGWYAWRYYAPGGYDYWGQGTQVTVSS :: low polyreactivity
